test-system: GPR40 (Homo sapiens)
Sequence (O14842 whole entry): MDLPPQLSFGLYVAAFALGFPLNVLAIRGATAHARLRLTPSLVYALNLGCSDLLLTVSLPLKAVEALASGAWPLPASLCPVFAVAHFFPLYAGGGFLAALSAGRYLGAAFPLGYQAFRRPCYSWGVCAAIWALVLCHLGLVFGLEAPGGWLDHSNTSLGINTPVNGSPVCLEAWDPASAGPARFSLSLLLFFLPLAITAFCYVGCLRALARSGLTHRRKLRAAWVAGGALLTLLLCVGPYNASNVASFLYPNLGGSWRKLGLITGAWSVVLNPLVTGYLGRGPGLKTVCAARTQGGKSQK
experiment-description: Cell-based aequorin assay (CHO cells stably expressing GPR40 and aequorin)
Set-up: expressed in transfected cells; host or cells: CHO cells stably transfected with GPR40 and aequorin
condition-set: activation of human GPR40, CHO cells, 0.01% HSA
pEC50: −log10 of the molar value.
value-type: pEC50

Enquiry: // pEC50 lookup, key: COc1ccc(F)c(-c2ccc(COc3cccc([C@@H](CC(=O)O)CC4CC4)c3)cc2C(F)C(C)(C)C)c1 (single isomer, unassigned)
Return: 6.00 to 7.00

Enquiry: Next record, please: COC[C@H](CC(=O)O)c1cccc(OCc2ccc(-c3cc(OC)ccc3F)c(C3=CCCC3(C)C)c2)c1 (single isomer, unassigned)
Return: 5.00 to 6.00

Enquiry: Next record, please: COc1cccc(-c2ccc(COc3cccc(C(CC(=O)O)CC4CC4)c3)cc2C(C)(C)C)c1 (single isomer, unassigned)
Return: 6.00 to 7.00

Enquiry: Next record, please: CSc1cccc(-c2ccc(COc3cccc([C@H](C)CC(=O)O)c3)cc2C(C)(C)C)c1 (single isomer, unassigned)
Return: 5.00 to 6.00

Enquiry: Next record, please: `COc1cccc(-c2ccc(COc3cccc(CCC(=O)O)c3)cc2C(C)(C)C)c1`
Return: 6.00 to 7.00

Enquiry: Next record, please: CCCCOc1cc(COc2cccc(C(CCCC)CC(=O)O)c2)ccc1-c1cc(OC)ccc1F (single isomer, unassigned)
Return: 6.00 to 7.00

Enquiry: Next record, please: COc1ccc(F)c(-c2ccc(COc3cccc(C(CC(=O)O)CC4CC4)c3F)cc2C2=CCCC2(C)C)c1 (single isomer, unassigned)
Return: 6.00 to 7.00

Enquiry: Next record, please: COc1ccc(F)c(-c2ccc(COc3cccc(C(CC(=O)O)CC4CC4)c3)cc2C2CCCCC2(C)C)c1 (single isomer, unassigned)
Return: 6.00 to 7.00

Enquiry: Next record, please: COc1ccc(F)c(-c2ccc(COc3cccc([C@@H](CC(=O)O)C4CC4)c3)cc2C2=CCCC2(C)C)c1 (single isomer, unassigned)
Return: 6.00 to 7.00

Enquiry: Next record, please: COc1ccc(F)c(-c2ccc(COc3cccc(C(CCC(F)(F)F)CC(=O)O)c3)cc2C(C)(C)C)c1 (single isomer, unassigned)
Return: 6.00 to 7.00

Enquiry: Next record, please: `COc1cccc(-c2ccc(COc3cccc(CCC(=O)O)c3)cc2C)c1`
Return: 5.00 to 6.00

Enquiry: Next record, please: `COc1ccc(F)c(-c2ccc(COc3cccc(C(C)(C)CC(=O)O)c3)cc2C(C)(C)C)c1`
Return: 6.00 to 7.00

Enquiry: Next record, please: COc1ccc(F)c(-c2ccc(COc3cccc([C@@H](CC(=O)O)C4CC4)c3)cc2C2CCCCCCC2)c1 (single isomer, unassigned)
Return: 6.00 to 7.00

Enquiry: Next record, please: CCC[C@H](CC(=O)O)c1cccc(OCc2ccc(-c3cc(OC)ccc3F)c(COCC)c2)c1 (single isomer, unassigned)
Return: 5.00 to 6.00

Enquiry: Next record, please: COc1ccc(F)c(-c2ccc(COc3cccc([C@@H](CC(=O)O)CC4CC4)c3)cc2S(=O)(=O)C(C)C)c1 (single isomer, unassigned)
Return: 5.00 to 6.00

Enquiry: Next record, please: CCCCOc1cc(COc2cccc([C@@H](CC(=O)O)C(F)(F)F)c2)ccc1-c1cc(OC)ccc1F (single isomer, unassigned)
Return: 5.00 to 6.00
